Attribution: patent US10179789B2

Readings of melting point for the listed molecules

Worked examples, 5 molecules total:
> print(dat)
                                   molecule   experimental.result
1  COc1cc2cc(C(=O)NCC(C)(C)N(C)C)c3c4cc5c(cc4ncc3c2cc1OC)OCO5 [Compound 34]         222 to 225 °C
2  COc1cc2c(C(=O)NCCC(C)(C)N(C)C)cc3c4cc5c(cc4ncc3c2cc1OC)OCO5 [Compound 42]         228 to 230 °C
3  COc1cc2c(C(=O)NCCCC(C)(C)N(C)C)cc3c4cc5c(cc4ncc3c2cc1OC)OCO5 [Compound 43]         235 to 237 °C
4  COc1cc2cc(C(=O)NCCC(C)(C)N(C)C)c3c4cc5c(cc4ncc3c2cc1OC)OCO5 [Compound 44]         233 to 235 °C
5  COc1cc2c(C(=O)NCC(C)(C)N)cc3c4cc5c(cc4ncc3c2cc1OC)OCO5 [Compound 33]  269 to 271 °C (dec.)

Now for the molecule whose melting point we want.
The reported value for COc1cc2cc(C(=O)NCCCC(C)(C)N(C)C)c3c4cc5c(cc4ncc3c2cc1OC)OCO5 [Compound 45] in terms of melting point is 239 to 242 °C
